Data origin: ChEMBL document CHEMBL1130731

experiment: Bioavailability in rat (dose 20 mg/kg p.o.)
Type: ADME, organism-based
condition.notes: in vivo, po
readout.name: bioavailability

Data request: # lookup: bioavailability of CO/N=C1\CN(c2c(F)cc3c(=O)c(C(=O)O)cn(C4CC4)c3c2F)CC1N (stereo unspecified)
Data returned: > 100%

###

experiment: Half-life after administration of 4 mg/Kg oral dose in dog
condition.notes: in vivo
readout.name: half-life (min)
I only need the number, in min, no unit after it.

Data request: # lookup: half-life of CO/N=C1\CN(c2c(F)cc3c(=O)c(C(=O)O)cn(C4CC4)c3c2F)CC1N (stereo unspecified)
Data returned: 140

###

Below, each of the compounds is paired with its reported MIC value.
System: Citrobacter koseri
experiment: In vitro antimicrobial activity against Citrobacter diversus 2046E
Format: functional
I only need the number, in µg/mL, no unit after it.

Some compounds with recorded MIC:
INSERT INTO assay_data (compound, test_target, output_unit, test_result) VALUES
  ('CO/N=C1/CN(c2c(F)cc3c(=O)c(C(=O)O)cn(C4CC4)c3c2Cl)CC1N (stereo not given)', 'Citrobacter koseri', 'µg/mL', 0.063),
  ('C=CCO/N=C1\CN(c2c(F)cc3c(=O)c(C(=O)O)cn(C4CC4)c3c2F)CC1N (stereo not given)', 'Citrobacter koseri', 'µg/mL', 0.13),
  ('NC1CN(c2c(F)cc3c(=O)c(C(=O)O)cn(C4CC4)c3c2F)C/C1=N\OCCF (stereo not given)', 'Citrobacter koseri', 'µg/mL', 0.13),
  ('CNC1CN(c2nc3c(cc2F)c(=O)c(C(=O)O)cn3C2CC2)C/C1=N\OC (stereo not given)', 'Citrobacter koseri', 'µg/mL', 0.13),
  ('CO/N=C1\CN(c2c(F)c(N)c3c(=O)c(C(=O)O)cn(C4CC4)c3c2F)CC1N (stereo not given)', 'Citrobacter koseri', 'µg/mL', 0.063),
  ('CO/N=C1\CN(c2nc3c(cc2F)c(=O)c(C(=O)O)cn3C2CC2)CC1N (stereo not given)', 'Citrobacter koseri', 'µg/mL', 0.063);

Next up:
Data request: # lookup: MIC of CO/N=C1/CN(c2cc3c(cc2F)c(=O)c(C(=O)O)cn3C2CC2)CC1N (stereo not given)
Data returned: 0.031

###

Below, each of the compounds is paired with its reported MIC value.
Test system: Staphylococcus epidermidis
experiment: In vitro antimicrobial activity against Staphylococcus epidermis 887E
Type: functional
I only need the number, in µg/mL, no unit after it.

Some compounds with recorded MIC:
INSERT INTO assay_data (compound, test_target, readout_name, output_unit, test_result) VALUES
  ('O=C(O)c1cn(C2CC2)c2cc(N3CCNCC3)c(F)cc2c1=O', 'Staphylococcus epidermidis', 'MIC', 'µg/mL', 0.13),
  ('CO/N=C1\CN(c2nc3c(cc2F)c(=O)c(C(=O)O)cn3C2CC2)CC1N (stereo not given)', 'Staphylococcus epidermidis', 'MIC', 'µg/mL', 0.063),
  ('CO/N=C1/CN(c2cc3c(cc2F)c(=O)c(C(=O)O)cn3C2CC2)CC1N (stereo not given)', 'Staphylococcus epidermidis', 'MIC', 'µg/mL', 0.031);

Data request: # lookup: MIC of CNC1CN(c2nc3c(cc2F)c(=O)c(C(=O)O)cn3C2CC2)C/C1=N\OC (stereo not given)
Data returned: 0.063

Data request: # lookup: MIC of NC1CN(c2c(F)cc3c(=O)c(C(=O)O)cn(C4CC4)c3c2F)C/C1=N\O (stereo not given)
Data returned: 0.13

Data request: # lookup: MIC of CO/N=C1/CN(c2c(F)cc3c(=O)c(C(=O)O)cn(C4CC4)c3c2Cl)CC1N (stereo not given)
Data returned: 0.016

Data request: # lookup: MIC of C=CCO/N=C1\CN(c2c(F)cc3c(=O)c(C(=O)O)cn(C4CC4)c3c2F)CC1N (stereo not given)
Data returned: 0.016

Data request: # lookup: MIC of NC1CN(c2c(F)cc3c(=O)c(C(=O)O)cn(C4CC4)c3c2F)C/C1=N\OCCF (stereo not given)
Data returned: 0.063

Data request: # lookup: MIC of CO/N=C1\CN(c2c(F)cc3c(=O)c(C(=O)O)cn(C4CC4)c3c2F)CC1N (stereo not given)
Data returned: 0.016

Data request: # lookup: MIC of CO/N=C1\CN(c2c(F)c(N)c3c(=O)c(C(=O)O)cn(C4CC4)c3c2F)CC1N (stereo not given)
Data returned: 0.016

###

experiment: in vivo
condition.notes: dog, plasma, po, 4 mg/kg
readout.name: AUC (ng·h/mL)
I only need the number, in ng·h/mL, no unit after it.

Data request: # lookup: AUC of CO/N=C1\CN(c2c(F)cc3c(=O)c(C(=O)O)cn(C4CC4)c3c2F)CC1N (stereo unspecified)
Data returned: 12900

###

Below, each of the compounds is paired with its reported MIC value.
Test system: Salmonella typhimurium
experiment: In vitro antimicrobial activity against Salmonella Typhimurium 14028
Type: functional, Salmonella enterica subsp. enterica serovar Typhimurium
condition.notes: Salmonella enterica
I only need the number, in µg/mL, no unit after it.

INSERT INTO assay_data (compound, test_result) VALUES
  ('CNC1CN(c2nc3c(cc2F)c(=O)c(C(=O)O)cn3C2CC2)C/C1=N\OC (stereo not given)', 0.25),
  ('C=CCO/N=C1\CN(c2c(F)cc3c(=O)c(C(=O)O)cn(C4CC4)c3c2F)CC1N (stereo not given)', 0.25),
  ('CO/N=C1/CN(c2c(F)cc3c(=O)c(C(=O)O)cn(C4CC4)c3c2Cl)CC1N (stereo not given)', 0.13),
  ('NC1CN(c2c(F)cc3c(=O)c(C(=O)O)cn(C4CC4)c3c2F)C/C1=N\O (stereo not given)', 0.63),
  ('CO/N=C1\CN(c2nc3c(cc2F)c(=O)c(C(=O)O)cn3C2CC2)CC1N (stereo not given)', 0.13);

Data request: # lookup: MIC of CO/N=C1/CN(c2cc3c(cc2F)c(=O)c(C(=O)O)cn3C2CC2)CC1N (stereo not given)
Data returned: 0.13

Data request: # lookup: MIC of NC1CN(c2c(F)cc3c(=O)c(C(=O)O)cn(C4CC4)c3c2F)C/C1=N\OCCF (stereo not given)
Data returned: 0.13

###

Tested on: Staphylococcus aureus
experiment: In vitro antimicrobial activity against Staphylococcus aureus 241
Assay type: functional
readout.name: MIC (µg/mL)
I only need the number, in µg/mL, no unit after it.

INSERT INTO measurements (compound, test_target, test_result) VALUES
  ('CO/N=C1/CN(c2c(F)cc3c(=O)c(C(=O)O)cn(C4CC4)c3c2Cl)CC1N (stereo not given)', 'Staphylococcus aureus', 0.5);

Data request: # lookup: MIC of NC1CN(c2c(F)cc3c(=O)c(C(=O)O)cn(C4CC4)c3c2F)C/C1=N\O (stereo not given)
Data returned: 32

Data request: # lookup: MIC of O=C(O)c1cn(C2CC2)c2cc(N3CCNCC3)c(F)cc2c1=O [CIPROFLOXACIN]
Data returned: 128

Data request: # lookup: MIC of CO/N=C1/CN(c2cc3c(cc2F)c(=O)c(C(=O)O)cn3C2CC2)CC1N (stereo not given)
Data returned: 32

Data request: # lookup: MIC of CO/N=C1\CN(c2c(F)c(N)c3c(=O)c(C(=O)O)cn(C4CC4)c3c2F)CC1N (stereo not given)
Data returned: 2

###

Below, each of the molecules is paired with its reported MIC value.
System: Citrobacter koseri
experiment: In vitro antimicrobial activity against Citrobacter diversus 2046E
Type: functional

Some molecules with recorded MIC:
INSERT INTO measurements (molecule, test_result) VALUES
  ('O=C(O)c1cn(C2CC2)c2cc(N3CCNCC3)c(F)cc2c1=O', '0.016 µg/mL'),
  ('CO/N=C1\CN(c2c(F)cc3c(=O)c(C(=O)O)cn(C4CC4)c3c2F)CC1N (stereo not drawn)', '0.063 µg/mL');

Next up:
Data request: # lookup: MIC of NC1CN(c2c(F)cc3c(=O)c(C(=O)O)cn(C4CC4)c3c2F)C/C1=N\O (stereo not drawn)
Data returned: 0.13 µg/mL

###

Tested on: Salmonella typhimurium
experiment: In vitro antimicrobial activity against Salmonella Typhimurium 14028
Type: functional, Salmonella enterica subsp. enterica serovar Typhimurium
condition.notes: Salmonella enterica
readout.name: MIC (µg/mL)
I only need the number, in µg/mL, no unit after it.

INSERT INTO results (compound, test_target, output_unit, test_result) VALUES
  ('CO/N=C1\CN(c2c(F)cc3c(=O)c(C(=O)O)cn(C4CC4)c3c2F)CC1N (stereo not drawn)', 'Salmonella typhimurium', 'µg/mL', 0.063),
  ('CO/N=C1\CN(c2c(F)c(N)c3c(=O)c(C(=O)O)cn(C4CC4)c3c2F)CC1N (stereo not drawn)', 'Salmonella typhimurium', 'µg/mL', 0.063);

Next up:
Data request: Checklist item: MIC tested on Salmonella typhimurium, entry O=C(O)c1cn(C2CC2)c2cc(N3CCNCC3)c(F)cc2c1=O , value?
Data returned: 0.031
